Cited source for all entries: patent US20040110687A1

experiment: CPT-11 dose escalation (LD50) with or without oral RDP58; assay type: in vivo, mice; conditions: mouse, in vivo, intraperitoneal; without RDP58, as restated in Example 7
Quantity: LD50 at 12 days

query: So what's the measured LD50 at 12 days for this one? CCc1c2c(nc3ccc(OC(=O)N4CCC(N5CCCCC5)CC4)cc13)-c1cc3c(c(=O)n1C2)COC(=O)[C@]3(O)CC [CPT-11, irinotecan, reference compound]
result: ~465 mg/kg
